Overview of reported Donor 2 Max IFNγ across a group of binders:
# experimental.system: T1, human B7-H4 on the cell surface (human, UniProt Q7Z7D3 25-282)
# T1 sequence: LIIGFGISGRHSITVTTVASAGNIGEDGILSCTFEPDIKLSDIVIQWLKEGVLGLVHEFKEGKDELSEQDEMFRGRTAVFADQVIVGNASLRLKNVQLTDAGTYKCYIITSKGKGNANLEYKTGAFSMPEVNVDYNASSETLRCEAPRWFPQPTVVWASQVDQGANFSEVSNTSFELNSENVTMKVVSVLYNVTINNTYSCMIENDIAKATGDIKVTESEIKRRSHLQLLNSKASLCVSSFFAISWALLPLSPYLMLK
# test.name: cell-based or functional assay
Provide only the numeric value, understood in pg/mL.

{"binder": "B7-H4 antibody 20506 (antibody, V domains shown, human IgG1/kappa) VH: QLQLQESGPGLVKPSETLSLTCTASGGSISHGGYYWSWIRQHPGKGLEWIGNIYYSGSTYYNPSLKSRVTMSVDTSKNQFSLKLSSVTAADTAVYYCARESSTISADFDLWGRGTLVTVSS VL: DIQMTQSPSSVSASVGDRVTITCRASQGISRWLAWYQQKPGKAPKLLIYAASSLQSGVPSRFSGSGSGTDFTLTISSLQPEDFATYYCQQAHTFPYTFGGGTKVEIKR", "Donor 2 Max IFNγ (pg/mL)": 259}
{"binder": "B7-H4 antibody 20502.1 (antibody, human IgG1, kappa, V domains shown, human IgG1/kappa) VH: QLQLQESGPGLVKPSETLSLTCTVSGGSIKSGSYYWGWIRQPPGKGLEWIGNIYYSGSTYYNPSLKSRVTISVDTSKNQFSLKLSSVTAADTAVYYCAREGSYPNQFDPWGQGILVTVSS VL: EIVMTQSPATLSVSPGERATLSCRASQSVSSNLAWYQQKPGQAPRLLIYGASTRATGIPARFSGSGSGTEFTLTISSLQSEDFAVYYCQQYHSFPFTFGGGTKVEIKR", "Donor 2 Max IFNγ (pg/mL)": 304}
{"binder": "B7-H4 antibody 20501 (antibody, human IgG1, kappa, V domains shown, human IgG1/kappa) VH: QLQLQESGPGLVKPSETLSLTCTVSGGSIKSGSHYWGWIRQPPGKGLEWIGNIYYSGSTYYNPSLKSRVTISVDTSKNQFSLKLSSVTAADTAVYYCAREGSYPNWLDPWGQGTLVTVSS VL: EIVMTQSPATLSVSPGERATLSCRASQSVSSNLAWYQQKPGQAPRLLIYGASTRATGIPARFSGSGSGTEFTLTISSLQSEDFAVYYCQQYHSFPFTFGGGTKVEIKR", "Donor 2 Max IFNγ (pg/mL)": 310}

Recorded Donor 2 Max IFNγ (binder B7-H4 antibody 20500 (antibody, human IgG1, kappa, V domains shown, human IgG1/kappa) VH: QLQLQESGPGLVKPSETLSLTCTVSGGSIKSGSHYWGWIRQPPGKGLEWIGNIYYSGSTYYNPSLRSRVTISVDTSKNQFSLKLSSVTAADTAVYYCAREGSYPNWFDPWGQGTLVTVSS VL: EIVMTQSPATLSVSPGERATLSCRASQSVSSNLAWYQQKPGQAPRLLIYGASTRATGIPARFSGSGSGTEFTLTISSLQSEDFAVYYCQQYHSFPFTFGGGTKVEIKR ): 274
